Tested on: S. epidermidis ATCC 12228
Assay: Planktonic susceptibility (MIC/MBC), 96-well broth microdilution
Format: cell-based, Staphylococcus epidermidis
Settings: Staphylococcus epidermidis, ATCC12228, planktonic, overnight 37°C in MHB
assay.metric: MIC (µM)
Number only, in µM; omit the unit.

Please list MIC recorded for the compound O=C(Nc1ccc(S(F)(F)(F)(F)F)cc1)Nc1ccc(Cl)c(Cl)c1 [EBP-59]
4

Please list MIC recorded for the compound O=C(Nc1ccc(Cl)c(C(F)(F)F)c1)Nc1ccc(Cl)c(C(F)(F)F)c1 [EBP-34]
0.2

Please list MIC recorded for the compound O=C(Nc1ccc(Cl)cc1)Nc1cccc(S(F)(F)(F)(F)F)c1 [EBP-62]
20

Please list MIC recorded for the compound O=C(Nc1ccc(Cl)cc1)Nc1ccc(S(F)(F)(F)(F)F)cc1 [EPB-61]
1

Please list MIC recorded for the compound O=C(Nc1ccc(Cl)cc1)Nc1cc(S(F)(F)(F)(F)F)ccc1Cl [EBP-40]
1200

Please list MIC recorded for the compound O=C(Nc1ccc(Cl)c(C(F)(F)F)c1)Nc1cc(S(F)(F)(F)(F)F)ccc1Cl [EBP-37]
8

Please list MIC recorded for the compound O=C(O)c1cn(C2CC2)c2cc(N3CCNCC3)c(F)cc2c1=O [Cip, Ciprofloxacin, reference compound]
1200

Please list MIC recorded for the compound CNC(C)C1CCC(N)C(OC2C(N)CC(N)C(OC3OCC(C)(O)C(NC)C3O)C2O)O1 (centres unmarked) [Gen, Gentamicin, reference compound]
300

---

Test: Eukaryotic cell toxicity, MTS assay (CC50)
Format: cell-based, canine
Details: dog, MDCK cells, MTS assay, 4 days; mean of 2 or 3 determinations; read-out: MDCK (CC50) in vitro cytotoxicity
Task for the reader: assign each of the following molecules its reported CC50 at 4 days.

Please list CC50 at 4 days recorded for the molecule `O=C(Nc1ccc(Cl)cc1)Nc1cccc(S(F)(F)(F)(F)F)c1`
100 µM

Please list CC50 at 4 days recorded for the molecule `O=C(Nc1ccc(S(F)(F)(F)(F)F)cc1)Nc1ccc(Cl)c(Cl)c1`
≥ 100 µM

Please list CC50 at 4 days recorded for the molecule `O=C(Nc1ccc(Cl)cc1)Nc1ccc(S(F)(F)(F)(F)F)cc1`
≥ 100 µM

---

System: 10 clinical isolates of MRSA from Foothills Hospital, Calgary
Assay: Planktonic susceptibility (MIC/MBC) of MRSA clinical isolates
Type: cell-based, methicillin-resistant S. aureus
Conditions: Staphylococcus aureus, MRSA #8 clinical isolate
Protocol: All bacterial strains subjected to testing had been stored at −70°C prior to the experiment. […] MIC and MBC assessments were conducted on all bacterial strains using 96-well microtiter plates. […] MIC was determined based on visible bacterial growth. […] MBC was determined by transferring 3 µL of culture from all MIC microtiter plate wells to 147 µL of Mueller-Hinton broth in fresh plates. […]
assay.metric: MBC (µM)
Number only, in µM; omit the unit.

Jot down MBC (10 clinical isolates of MRSA from Foothills Hospital, Calgary) of O=C(Nc1ccc(Cl)cc1)Nc1ccc(S(F)(F)(F)(F)F)cc1 [EPB-61] .
40

Jot down MBC (10 clinical isolates of MRSA from Foothills Hospital, Calgary) of O=C(Nc1ccc(Cl)cc1)Nc1cc(S(F)(F)(F)(F)F)ccc1Cl [EBP-40] .
80

Jot down MBC (10 clinical isolates of MRSA from Foothills Hospital, Calgary) of O=C(Nc1ccc(Cl)c(C(F)(F)F)c1)Nc1cc(S(F)(F)(F)(F)F)ccc1Cl [EBP-37] .
10

Jot down MBC (10 clinical isolates of MRSA from Foothills Hospital, Calgary) of O=C(Nc1ccc(S(F)(F)(F)(F)F)cc1)Nc1ccc(Cl)c(Cl)c1 [EBP-59] .
5

Jot down MBC (10 clinical isolates of MRSA from Foothills Hospital, Calgary) of CNC(C)C1CCC(N)C(OC2C(N)CC(N)C(OC3OCC(C)(O)C(NC)C3O)C2O)O1 (stereo not shown) [Gen, Gentamicin, reference compound] .
50

Jot down MBC (10 clinical isolates of MRSA from Foothills Hospital, Calgary) of O=C(Nc1ccc(Cl)cc1)Nc1cccc(S(F)(F)(F)(F)F)c1 [EBP-62] .
80

Jot down MBC (10 clinical isolates of MRSA from Foothills Hospital, Calgary) of O=C(Nc1ccc(Cl)c(C(F)(F)F)c1)Nc1ccc(Cl)c(C(F)(F)F)c1 [EBP-34] .
5

---

Task for the reader: assign each of the following molecules its reported MBC.
Tested on: 10 clinical isolates of MRSA from Foothills Hospital, Calgary
Assay: Planktonic susceptibility (MIC/MBC) of MRSA clinical isolates
Assay type: cell-based, methicillin-resistant S. aureus
Settings: Staphylococcus aureus, MRSA #3 clinical isolate
Number only, in µM; omit the unit.

Jot down MBC (10 clinical isolates of MRSA from Foothills Hospital, Calgary) of O=C(Nc1ccc(Cl)cc1)Nc1cc(S(F)(F)(F)(F)F)ccc1Cl [EBP-40] .
160

Jot down MBC (10 clinical isolates of MRSA from Foothills Hospital, Calgary) of CNC(C)C1CCC(N)C(OC2C(N)CC(N)C(OC3OCC(C)(O)C(NC)C3O)C2O)O1 (stereo not shown) [Gen, Gentamicin, reference compound] .
50

Jot down MBC (10 clinical isolates of MRSA from Foothills Hospital, Calgary) of O=C(Nc1ccc(Cl)c(C(F)(F)F)c1)Nc1ccc(Cl)c(C(F)(F)F)c1 [EBP-34] .
80

Jot down MBC (10 clinical isolates of MRSA from Foothills Hospital, Calgary) of O=C(Nc1ccc(Cl)cc1)Nc1ccc(S(F)(F)(F)(F)F)cc1 [EPB-61] .
10

Jot down MBC (10 clinical isolates of MRSA from Foothills Hospital, Calgary) of O=C(Nc1ccc(Cl)c(C(F)(F)F)c1)Nc1cc(S(F)(F)(F)(F)F)ccc1Cl [EBP-37] .
600

---

System: Klebsiella pneumoniae ATCC
Assay: Planktonic susceptibility (MIC/MBC), 96-well broth microdilution
Assay type: cell-based
Settings: K. pneumonia
assay.metric: MBC

Please list MBC recorded for the molecule `O=C(Nc1ccc(Cl)cc1)Nc1ccc(Cl)c(S(F)(F)(F)(F)F)c1`
> 5 mM

Please list MBC recorded for the molecule `O=C(Nc1ccc(Cl)cc1)Nc1cc(S(F)(F)(F)(F)F)ccc1Cl`
> 5 mM

Please list MBC recorded for the molecule `O=C(Nc1ccc(Cl)c(S(F)(F)(F)(F)F)c1)Nc1ccc2nnsc2c1`
> 5 mM

Please list MBC recorded for the molecule `O=C(Nc1ccc(Cl)cc1)Nc1cccc(S(F)(F)(F)(F)F)c1`
> 5 mM

Please list MBC recorded for the molecule `O=C(Nc1ccc2nnsc2c1)Nc1cc(S(F)(F)(F)(F)F)ccc1Cl`
> 5 mM

Please list MBC recorded for the molecule `O=C(Nc1cccc(S(F)(F)(F)(F)F)c1)Nc1cccc(S(F)(F)(F)(F)F)c1`
> 5 mM

Please list MBC recorded for the molecule `O=C(Nc1cccc(S(F)(F)(F)(F)F)c1)Nc1ccc2nnsc2c1`
> 5 mM

Please list MBC recorded for the molecule `O=C(Nc1ccc(Cl)cc1)Nc1cccc(S(F)(F)(F)(F)F)c1Cl`
> 5 mM

Please list MBC recorded for the molecule CNC(C)C1CCC(N)C(OC2C(N)CC(N)C(OC3OCC(C)(O)C(NC)C3O)C2O)O1 (stereo not shown) [Gen, Gentamicin, reference compound]
0.05 mM

Please list MBC recorded for the molecule `O=C(Nc1ccc(Cl)c(C(F)(F)F)c1)Nc1ccc2nnsc2c1`
> 5 mM

Please list MBC recorded for the molecule `O=C(Nc1cc(S(F)(F)(F)(F)F)ccc1Cl)Nc1cc(S(F)(F)(F)(F)F)ccc1Cl`
> 5 mM

Please list MBC recorded for the molecule `O=C(Nc1ccc(S(F)(F)(F)(F)F)cc1)Nc1ccc(Cl)c(Cl)c1`
> 5 mM

Please list MBC recorded for the molecule O=C(O)c1cn(C2CC2)c2cc(N3CCNCC3)c(F)cc2c1=O [Cip, Ciprofloxacin, reference compound]
0.5 mM

Please list MBC recorded for the molecule `O=C(Nc1ccc(S(F)(F)(F)(F)F)cc1)Nc1cccc(S(F)(F)(F)(F)F)c1`
> 5 mM

Please list MBC recorded for the molecule `O=C(Nc1ccc(S(F)(F)(F)(F)F)cc1)Nc1ccc2nnsc2c1`
> 5 mM

Please list MBC recorded for the molecule `O=C(Nc1ccc(Cl)cc1)Nc1ccc(S(F)(F)(F)(F)F)cc1`
> 5 mM

Please list MBC recorded for the molecule `O=C(Nc1ccc(Cl)c(C(F)(F)F)c1)Nc1ccc(Cl)c(C(F)(F)F)c1`
> 5 mM

Please list MBC recorded for the molecule `O=C(Nc1ccc(Cl)c(C(F)(F)F)c1)Nc1cc(S(F)(F)(F)(F)F)ccc1Cl`
> 5 mM

Please list MBC recorded for the molecule `O=C(Nc1ccc2nnsc2c1)Nc1cccc(S(F)(F)(F)(F)F)c1Cl`
> 5 mM

Please list MBC recorded for the molecule `O=C(Nc1ccc(Cl)c(Cl)c1)Nc1ccc2nnsc2c1`
> 5 mM

Please list MBC recorded for the molecule `O=C(Nc1ccc(Cl)c(S(F)(F)(F)(F)F)c1)Nc1ccc(Cl)c(S(F)(F)(F)(F)F)c1`
> 5 mM

Please list MBC recorded for the molecule `O=C(Nc1ccc(S(F)(F)(F)(F)F)cc1)Nc1ccc(S(F)(F)(F)(F)F)cc1`
> 5 mM

The reported measurements were obtained from paper PMC11237694.
